- TEST_DESCRIPTION: Peak plasma levels (Cmax) of compounds and metabolites on day 14 by UHPLC-MS/MS
- Format: in vivo, human
- REPORTED_CONDITIONS: male, human, plasma; UA alone group, UA 300 mg/day oral, 2 weeks; read-out: UA plasma level, median (Cmax day 14)
REPORTED_METRIC: Cmax

Ask | Supply recorded Cmax for C[C@H]1[C@H](C)CC[C@]2(C(=O)O)CC[C@]3(C)C(=CC[C@@H]4[C@@]5(C)CC[C@H](O)C(C)(C)[C@@H]5CC[C@]43C)[C@H]12 [Ursolic Acid, ursolic acid] here.
Reply | 2.7 ng/mL
